System: KM12 colon
Assay: NCI-60 one-dose screen, 48 h
Details: 10 µM unless noted
Compounds without any hit were thinned out: in the full panel of roughly 83,000, 20% have a hit. The source made the active and inactive calls. The calls were made as follows: active = growth percent below 10; inactive = the rest.
Log the outcome using a class from active, inactive

compound: Cn1cc(-c2nnc(N)nc2-c2c[nH]c3ccc(F)cc23)c2cc(Br)ccc21
answer.label: inactive
--
compound: COc1ccc2c(c1)C=CC1(O2)Oc2ccc(OC)cc2C=C1C (centres undefined)
answer.label: inactive
--
compound: O=C(CCCCCCNC(=O)C(O)(O)C(F)(F)F)Nc1ccc(Br)cc1
answer.label: inactive

Look up the recorded call for `CCCNNC(=O)c1ccc(-c2ccc(NC(=O)CCCCCCC(=O)N[C@H](C(=O)N3C[C@H](O)C[C@H]3C(=O)N[C@@H](C)c3ccc(-c4scnc4C)cc3)C(C)(C)C)cc2)cc1` in this test.
inactive

Entry `O=S(=O)(Oc1ccc(-c2cn3ccoc3n2)cc1)c1cccc(C(F)(F)F)c1` please
inactive

Entry `CCN(CC)CCOc1ccc(C(=C(c2ccccc2)C2CCCC2)c2ccc(OCCN(CC)CC)cc2)cc1` please
active

The values you see were collected from PubChem BioAssay (NCI).
